Each recorded value in this set is attributed to patent US7846959B2.

# System Tested: B-Raf (Homo sapiens)
# Method Description: Luciferase-coupled chemiluminescence kinase assay (ATP consumption), B-Raf
# Format: biochemical
# Condition Label: read-out: bRaf IC50
A collection of molecules and their measured IC50
Readout Name: IC50

1) COC(=O)Nc1nc2cc(C3(O)c4ccccc4C(=O)N3C(C)c3cc(Cl)ccc3C)ccc2[nH]1 (stereo not shown) [Entry 198] : 1 to 10 µM
2) COc1ccc(Cl)cc1N1C(=O)c2ccccc2C1(O)c1ccc2c(c1)NC(=O)CO2 (stereo not shown) [Entry 63] : 1 to 10 µM
3) COC(=O)Nc1nc2cc(C3(O)c4ccccc4C(=O)N3C3CCCCC3)ccc2[nH]1 (stereo not shown) [Entry 167] : < 0.1 µM
4) COC(=O)Nc1nc2cc(C3(O)c4ccccc4C(=O)N3c3cccnc3)ccc2[nH]1 (stereo not shown) [Entry 242] : 0.1 to 1 µM
5) C=CCCOC(=O)Nc1nc2cc(C3(O)c4ccccc4C(=O)N3Cc3ccccc3)ccc2[nH]1 (stereo not shown) [Entry 195] : < 0.1 µM
6) CCNC(=O)Nc1nc2cc(C3(O)c4ccccc4C(=O)N3[C@H](C)c3ccccc3)ccc2[nH]1 (stereo partly shown) [Entry 157] : < 0.1 µM
7) COC(=O)Nc1nc2cc(C3(O)c4ccccc4C(=O)N3Cc3cccc(I)c3)ccc2[nH]1 (stereo not shown) [Entry 121] : 0.1 to 1 µM
8) O=C1COc2ccc(C3(O)c4ccccc4C(=O)N3c3ccc(F)c(F)c3)cc2N1 (stereo not shown) [Entry 58] : 1 to 10 µM
9) COC(=O)Nc1nc2cc(C3(O)c4ccccc4C(=O)N3c3cccc(OCc4ccccc4)c3)ccc2[nH]1 (stereo not shown) [Entry 221] : 0.1 to 1 µM
10) COC(=O)Nc1nc2cc(C3(O)c4ccccc4C(=O)N3c3cccc(Cc4ccccc4)c3)ccc2[nH]1 (stereo not shown) [Entry 232] : < 0.1 µM
11) COC(=O)Nc1nc2cc(C3(O)c4ccccc4C(=O)N3c3cc(F)ccc3F)ccc2[nH]1 (stereo not shown) [Entry 168] : < 0.1 µM
12) O=C(Nc1nc2cc(C3(O)c4ccccc4C(=O)N3Cc3ccccc3)ccc2[nH]1)OCC(F)(F)F (stereo not shown) [Entry 196] : < 0.1 µM
13) COC(=O)Nc1nc2cc(C3(O)c4ccccc4C(=O)N3Cc3ccsc3)ccc2[nH]1 (stereo not shown) [Entry 206] : < 0.1 µM
14) COC(=O)Nc1nc2cc(C3(O)c4ccccc4C(=O)N3c3cccc(Oc4ccccc4)c3)ccc2[nH]1 (stereo not shown) [Entry 220] : < 0.1 µM
15) CCOC1(c2ccc3[nH]c(NC(=O)OC)nc3c2)c2ccccc2C(=O)N1Cc1ccccc1 (stereo not shown) [Entry 92] : 0.1 to 1 µM
16) CC(C)OC(=O)Nc1nc2cc(C3(O)c4ccccc4C(=O)N3Cc3ccccc3)ccc2[nH]1 (stereo not shown) [Entry 110] : < 0.1 µM

###

# System Tested: B-Raf (Homo sapiens, UniProt P15056)
# Sequence (P15056 whole entry): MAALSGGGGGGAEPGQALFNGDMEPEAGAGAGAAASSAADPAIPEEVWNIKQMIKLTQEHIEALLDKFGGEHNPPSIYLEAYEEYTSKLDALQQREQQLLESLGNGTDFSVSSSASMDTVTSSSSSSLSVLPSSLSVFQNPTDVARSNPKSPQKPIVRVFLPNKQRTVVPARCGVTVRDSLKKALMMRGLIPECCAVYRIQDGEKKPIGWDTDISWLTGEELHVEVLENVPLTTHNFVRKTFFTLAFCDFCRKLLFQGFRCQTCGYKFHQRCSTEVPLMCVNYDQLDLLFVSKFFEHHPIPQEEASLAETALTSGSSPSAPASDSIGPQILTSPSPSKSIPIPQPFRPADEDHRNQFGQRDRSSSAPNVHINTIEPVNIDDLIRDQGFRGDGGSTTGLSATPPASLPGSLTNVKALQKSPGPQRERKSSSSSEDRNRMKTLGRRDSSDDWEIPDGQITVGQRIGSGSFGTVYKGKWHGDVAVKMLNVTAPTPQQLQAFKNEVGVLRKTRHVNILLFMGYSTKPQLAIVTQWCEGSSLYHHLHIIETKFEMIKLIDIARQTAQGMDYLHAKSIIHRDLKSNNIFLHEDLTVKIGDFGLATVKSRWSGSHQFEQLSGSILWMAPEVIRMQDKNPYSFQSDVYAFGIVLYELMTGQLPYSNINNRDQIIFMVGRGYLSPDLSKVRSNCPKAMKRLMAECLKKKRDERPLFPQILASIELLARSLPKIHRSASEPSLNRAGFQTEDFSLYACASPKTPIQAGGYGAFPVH
# Method Description: Luciferase-coupled chemiluminescence kinase assay (ATP consumption), B-Raf
# Assay type: biochemical
# Condition Label: read-out: bRaf (inhibition indicated as IC50)
pIC50: −log10 of the molar value.
Readout Name: pIC50

1) C#CCCC(=O)Nc1nc2ccc(C(=O)c3ccccc3C(=O)Nc3ccc(F)cc3)cc2[nH]1 : > 7.00
2) COC(=O)Nc1nc2ccc(C3CCC(=O)N3c3cccc(Br)c3)cc2[nH]1 (stereo not shown) : 5.00 to 6.00
3) C#Cc1cccc(N2C(=O)c3c(F)ccc(F)c3C2(O)c2ccc3[nH]c(NC(=O)OC)nc3c2)c1F (stereo not shown) : > 7.00
4) CC#CCOC(=O)Nc1nc2cc(C3(O)c4ccccc4C(=O)N3c3ccc(F)cc3)ccc2[nH]1 (stereo not shown) : > 7.00
5) COC(=O)Nc1nc2ccc(C(=O)c3ccccc3C(=O)Nc3cc(Cl)ccc3C)cc2[nH]1 : > 7.00
6) COC(=O)Nc1nc2ccc(C(=O)c3ccccc3C(=O)Nc3cccc(C(F)(F)F)c3)cc2[nH]1 : > 7.00
7) CCN(CC)CCOC(=O)Nc1nc2cc(C3(O)c4ccccc4C(=O)N3c3cccc(Cl)c3F)ccc2[nH]1 (stereo not shown) : > 7.00
8) O=C(Nc1nc2ccc(C3(O)c4ccccc4C(=O)N3c3ccc(F)cc3)cc2[nH]1)OCCCN1CCCCC1 (stereo not shown) : 6.00 to 7.00
9) C#Cc1cccc(NC(=O)c2ccccc2C(=O)c2ccc3nc(NC(=O)OC)[nH]c3c2)c1 : > 7.00
10) COC(=O)Nc1nc2ccc(C(=O)c3ccccc3C(=O)Nc3cccc(F)c3)cc2[nH]1 : > 7.00
11) O=C(Nc1nc2ccc(C3(O)c4ccccc4C(=O)N3c3cccc(Cl)c3F)cc2[nH]1)OCC1CC2CCC(C1)N2 (stereo not shown) : > 7.00
12) COC(=O)Nc1nc2ccc(C(=O)c3ccccc3C(=O)Nc3cccc(I)c3)cc2[nH]1 : > 7.00
13) COC(=O)Nc1nc2ccc(C(=O)c3ccccc3C(=O)Nc3cccc(Cl)c3)cc2[nH]1 : > 7.00
14) COC(=O)Nc1nc2ccc(C3(O)c4ccccc4C(=O)N3c3cccc(C)c3F)cc2[nH]1 (stereo not shown) : > 7.00
15) COC(=O)Nc1nc2cc(C3(O)c4ccccc4C(=O)N3c3cc(C)ccc3C)ccc2[nH]1 (stereo not shown) : > 7.00
16) COC(=O)Nc1nc2cc(C3(O)c4ccccc4C(=O)N3c3cccc(N4CCOCC4)c3)ccc2[nH]1 (stereo not shown) : 5.00 to 6.00
17) O=C1c2ccccc2C(O)(c2ccc3[nH]c(Nc4cnccn4)nc3c2)N1c1cccc(Cl)c1F (stereo not shown) : > 7.00
18) O=C(Nc1nc2ccc(C3(O)c4ccccc4C(=O)N3c3cccc(Cl)c3F)cc2[nH]1)OCC1CCC1 (stereo not shown) : > 7.00
19) COC(=O)Nc1nc2ccc(C3(C)c4ccccc4C(=O)N3c3cccc(Br)c3)cc2[nH]1 (stereo not shown) : > 7.00
20) COC(=O)Nc1nc2ccc(C(=O)c3ccccc3C(=O)Nc3cc(Cl)ccc3F)cc2[nH]1 : > 7.00
21) C#Cc1cccc(NC(=O)c2ccccc2C(=O)c2ccc3nc(NC(=O)OC)[nH]c3c2)c1F : > 7.00
22) COC(=O)Nc1nc2ccc(C(=O)c3ccccc3C(=O)Nc3cc(Cl)c(F)cc3F)cc2[nH]1 : > 7.00
23) COC(=O)Nc1nc2ccc(C(=O)c3ccccc3C(=O)Nc3cccc(Cl)c3F)cc2[nH]1 : > 7.00
24) O=C(Nc1nc2ccc(C3(O)c4ccccc4C(=O)N3c3cccc(Cl)c3F)cc2[nH]1)OCCN1CCCC1=O (stereo not shown) : > 7.00
25) COC(=O)Nc1nc2cc(C3(O)c4ccccc4C(=O)N3c3cc(OC)ccc3F)ccc2[nH]1 (stereo not shown) : > 7.00
26) Cc1ccc(Cl)cc1N1C(=O)c2ccccc2C1(O)c1ccc2nc(Nc3ncccn3)[nH]c2c1 (stereo not shown) : > 7.00
27) O=C(Nc1nc2ccc(C3(O)c4ccccc4C(=O)N3c3cccc(Cl)c3F)cc2[nH]1)OCC1CC1 (stereo not shown) : > 7.00
28) O=C1c2ccccc2C(O)(c2ccc3[nH]c(Nc4ccc(Cl)nn4)nc3c2)N1c1cccc(Cl)c1F (stereo not shown) : 6.00 to 7.00
29) COC(=O)Nc1nc2cc(C3(O)c4ccccc4C(=O)N3c3cccc(N4CCCC4)c3)ccc2[nH]1 (stereo not shown) : 5.00 to 6.00
30) CN(CCOC(=O)Nc1nc2cc(C3(O)c4ccccc4C(=O)N3c3cccc(Cl)c3F)ccc2[nH]1)Cc1ccccc1 (stereo not shown) : > 7.00
31) C=Cc1cccc(N2C(=O)c3ccccc3C2(O)c2ccc3[nH]c(NC(=O)OC)nc3c2)c1F (stereo not shown) : > 7.00

###

A collection of compounds and their measured IC50
# System Tested: UniProtKB P04049
# Sequence (P04049 whole entry): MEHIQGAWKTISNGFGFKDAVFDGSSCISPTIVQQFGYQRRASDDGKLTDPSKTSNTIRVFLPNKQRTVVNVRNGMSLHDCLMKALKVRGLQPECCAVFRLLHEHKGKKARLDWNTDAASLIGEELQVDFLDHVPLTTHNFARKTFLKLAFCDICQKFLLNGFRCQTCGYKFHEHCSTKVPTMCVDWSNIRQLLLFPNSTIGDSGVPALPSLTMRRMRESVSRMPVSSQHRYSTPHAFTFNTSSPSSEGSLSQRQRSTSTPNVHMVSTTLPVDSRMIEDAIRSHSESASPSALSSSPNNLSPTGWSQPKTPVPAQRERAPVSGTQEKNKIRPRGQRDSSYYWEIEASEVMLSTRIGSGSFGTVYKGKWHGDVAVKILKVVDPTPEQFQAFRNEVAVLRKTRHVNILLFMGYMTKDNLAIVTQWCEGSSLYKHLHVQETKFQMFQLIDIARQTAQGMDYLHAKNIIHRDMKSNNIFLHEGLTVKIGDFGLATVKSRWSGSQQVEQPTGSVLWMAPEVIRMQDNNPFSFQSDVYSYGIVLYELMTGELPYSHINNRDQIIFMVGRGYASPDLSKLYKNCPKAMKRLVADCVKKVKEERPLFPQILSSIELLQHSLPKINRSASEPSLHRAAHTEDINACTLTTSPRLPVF
# Method Description: Luciferase-coupled chemiluminescence kinase assay (ATP consumption), c-Raf
# Type: biochemical
# Condition Label: read-out: cRaf-1 IC50
Readout Name: IC50

1. COC(=O)Nc1nc2cc(C3(O)c4ccccc4C(=O)N3CC3CCCC3)ccc2[nH]1 (centres unmarked) : < 100 nM
2. COC(=O)Nc1nc2cc(C3(O)c4ccccc4C(=O)N3C(C)c3ccccc3F)ccc2[nH]1 (centres unmarked) : 1000 to 10000 nM
3. COC(=O)Nc1nc2cc(C3(O)c4ccccc4C(=O)N3Cc3ccccn3)ccc2[nH]1 (centres unmarked) : 100 to 1000 nM
4. CC#CCOC(=O)Nc1nc2cc(C3(O)c4ccccc4C(=O)N3[C@H](C)c3ccccc3)ccc2[nH]1 (some centres unmarked) : < 100 nM
5. O=C1COc2ccc(C3(O)c4ccccc4C(=O)N3c3cccc(OC(F)(F)F)c3)cc2N1 (centres unmarked) : ≥ 10000 nM
6. COC(=O)Nc1nc2cc(C3(O)c4ccccc4C(=O)N3C3CCCCC3)ccc2[nH]1 (centres unmarked) : < 100 nM
7. COC(=O)Nc1nc2cc(C3(O)c4ccccc4C(=O)N3c3cccc(OC)c3)ccc2[nH]1 (centres unmarked) : < 100 nM
8. COC(=O)Nc1nc2cc(C3(O)c4ccccc4C(=O)N3c3cccnc3)ccc2[nH]1 (centres unmarked) : < 100 nM
